Entry source: patent US8101605B2

# target or system: His-hSHIP1 enzyme (Homo sapiens, UniProt Q92835)
# Sequence (Q92835 whole entry): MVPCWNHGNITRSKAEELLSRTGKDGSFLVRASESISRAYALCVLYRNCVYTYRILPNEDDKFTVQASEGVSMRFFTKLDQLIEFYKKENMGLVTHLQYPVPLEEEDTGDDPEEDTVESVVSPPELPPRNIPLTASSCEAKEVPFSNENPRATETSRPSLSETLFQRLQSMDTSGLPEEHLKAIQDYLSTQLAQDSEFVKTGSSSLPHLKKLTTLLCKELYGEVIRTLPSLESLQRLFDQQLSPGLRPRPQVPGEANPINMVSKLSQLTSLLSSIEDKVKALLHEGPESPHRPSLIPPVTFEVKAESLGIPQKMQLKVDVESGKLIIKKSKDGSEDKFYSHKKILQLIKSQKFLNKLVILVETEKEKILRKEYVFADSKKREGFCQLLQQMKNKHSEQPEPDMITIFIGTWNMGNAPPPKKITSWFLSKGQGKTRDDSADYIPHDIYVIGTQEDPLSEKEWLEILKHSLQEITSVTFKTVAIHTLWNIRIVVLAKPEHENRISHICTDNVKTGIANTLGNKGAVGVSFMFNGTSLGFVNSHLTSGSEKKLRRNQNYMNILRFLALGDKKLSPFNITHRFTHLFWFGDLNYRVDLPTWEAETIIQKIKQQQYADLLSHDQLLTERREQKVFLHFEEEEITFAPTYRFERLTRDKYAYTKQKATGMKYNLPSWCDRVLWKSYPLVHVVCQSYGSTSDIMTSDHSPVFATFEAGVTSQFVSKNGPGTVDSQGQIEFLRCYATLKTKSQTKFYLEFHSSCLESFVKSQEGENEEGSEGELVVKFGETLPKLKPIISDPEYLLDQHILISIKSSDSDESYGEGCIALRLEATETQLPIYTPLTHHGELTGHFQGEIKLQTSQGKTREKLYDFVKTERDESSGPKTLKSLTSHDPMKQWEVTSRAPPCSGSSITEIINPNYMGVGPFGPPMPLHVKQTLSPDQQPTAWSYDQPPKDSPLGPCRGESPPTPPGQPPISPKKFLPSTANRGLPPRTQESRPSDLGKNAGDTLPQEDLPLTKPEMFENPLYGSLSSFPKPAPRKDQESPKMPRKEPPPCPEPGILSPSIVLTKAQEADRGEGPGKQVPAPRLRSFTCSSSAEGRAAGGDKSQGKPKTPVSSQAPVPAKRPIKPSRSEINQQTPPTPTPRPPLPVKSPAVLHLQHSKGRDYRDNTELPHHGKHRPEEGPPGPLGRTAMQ
# procedure details: His-hSHIP1 phosphatase activity assay (IP4 substrate, Biomol Green)
# Assay type: biochemical
# condition label: percentage increase relative to background; concentrations ≦300 μM
quantity name: Scoring: percent (%) activation of His-hSHIP1 enzyme

Worked set:
COc1cc(C(=O)O)cc2c1[C@]1(C)CC[C@H]3C(C)(C)CCC[C@]3(C)[C@H]1CS2(=O)=O	+ (<50%)
COc1cc(O)cc2c1[C@]1(C)CC[C@H]3C(C)(C)CCC[C@]3(C)[C@H]1CS2(=O)=O	+ (<50%)
CONC(=O)c1cc(O)cc2c1[C@]1(C)CC[C@H]3C(C)(C)CCC[C@]3(C)[C@H]1CS2(=O)=O	+ (<50%)
COC(=O)c1cc(C(=O)O)cc2c1[C@]1(C)CC[C@H]3C(C)(C)CCC[C@]3(C)[C@H]1CS2(=O)=O	+ (<50%)

Here are 6 compounds. What values of Scoring: percent (%) activation of His-hSHIP1 enzyme were reported for them?
1. Cc1cc(O)cc2c1[C@]1(C)CC[C@H]3C(C)(C)CCC[C@]3(C)[C@H]1CO2
2. CC1(C)CCC[C@]2(C)[C@H]3CS(=O)(=O)c4cc(O)cc(C(=O)O)c4[C@]3(C)CC[C@@H]12
3. COc1cc(C)c2c(c1)OC[C@@H]1[C@@]3(C)CCCC(C)(C)[C@@H]3CC[C@@]21C
4. COc1cc(OCC(=O)O)cc2c1[C@]1(C)CC[C@H]3C(C)(C)CCC[C@]3(C)[C@H]1CS2(=O)=O
5. CNC(=O)c1cc(OC)c2c(c1)S(=O)(=O)C[C@@H]1[C@@]3(C)CCCC(C)(C)[C@@H]3CC[C@@]21C
6. CC1(C)CCC[C@]2(C)[C@H]3CS(=O)(=O)c4cc(C(=O)N5CCOCC5)cc(O)c4[C@]3(C)CC[C@@H]12

Result:
1. + (<50%)
2. ++ (≧50% but <65%)
3. ++ (≧50% but <65%)
4. + (<50%)
5. + (<50%)
6. ++ (≧50% but <65%)

Entry CC1(C)CCC[C@]2(C)[C@H]3CS(=O)(=O)c4cc(C(=O)N5CCNCC5)cc(O)c4[C@]3(C)CC[C@@H]12 — recorded Scoring: percent (%) activation of His-hSHIP1 enzyme = + (<50%)
